Target: Histone acetyltransferase KAT2B (Homo sapiens, UniProt Q92831)
Sequence (Q92831 whole entry, looked up): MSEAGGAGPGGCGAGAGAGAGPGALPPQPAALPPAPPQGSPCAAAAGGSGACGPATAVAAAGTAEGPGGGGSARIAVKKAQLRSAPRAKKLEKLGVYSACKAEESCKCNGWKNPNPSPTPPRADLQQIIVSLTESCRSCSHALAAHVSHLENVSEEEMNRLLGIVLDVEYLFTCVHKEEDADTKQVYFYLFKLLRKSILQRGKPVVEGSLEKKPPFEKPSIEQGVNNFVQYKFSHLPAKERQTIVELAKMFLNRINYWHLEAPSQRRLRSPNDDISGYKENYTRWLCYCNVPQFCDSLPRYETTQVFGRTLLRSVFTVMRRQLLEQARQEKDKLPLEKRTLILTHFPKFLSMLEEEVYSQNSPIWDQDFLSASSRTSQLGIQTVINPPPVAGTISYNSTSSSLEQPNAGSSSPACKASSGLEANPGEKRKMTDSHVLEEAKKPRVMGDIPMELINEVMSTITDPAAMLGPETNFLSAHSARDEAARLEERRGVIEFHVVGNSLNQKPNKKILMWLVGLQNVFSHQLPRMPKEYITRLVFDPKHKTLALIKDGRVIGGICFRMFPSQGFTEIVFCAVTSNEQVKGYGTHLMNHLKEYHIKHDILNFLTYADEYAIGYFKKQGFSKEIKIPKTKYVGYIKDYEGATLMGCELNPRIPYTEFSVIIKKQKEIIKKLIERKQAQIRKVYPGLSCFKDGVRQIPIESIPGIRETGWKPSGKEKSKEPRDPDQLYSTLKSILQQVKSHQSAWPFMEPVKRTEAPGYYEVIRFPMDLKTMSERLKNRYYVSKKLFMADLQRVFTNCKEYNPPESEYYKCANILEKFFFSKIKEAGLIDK
Assay: Binding affinity to human N-terminal His-tagged PCAF assessed as change in melting temperature at 10 uM by SYPRO orange dye-based fluorescence assay
Field: label. Allowed values: criterion met (ΔTm < 6 °C) or criterion not met (ΔTm >= 6 °C).

Please review the entries below; each comes with its answer.
CN1C[C@H](Nc2nc3cc[nH]c3c(=O)n2C)C[C@H](c2cccc(Br)c2)C1 : criterion not met
CN1C[C@H](Nc2nc3cc[nH]c3c(=O)n2C)C[C@H](c2ccc(OCc3ccccc3)cc2)C1 : criterion not met
Cn1c(N[C@H]2C[C@H]3CCC[C@@H](C2)N3C[C@H](O)c2ccccn2)nc2cc[nH]c2c1=O : criterion met
CN1C[C@@H](Nc2nc3cc[nH]c3c(=O)n2C)C[C@@H](c2ccccc2)C1 : criterion met
CCCCc1ccc([C@H]2C[C@@H](Nc3nc4cc[nH]c4c(=O)n3C)CN(C)C2)cc1 : criterion met

Ask: Is ΔTm strictly under 6 °C for the entry CN1C[C@H](Nc2nc3cc[nH]c3c(=O)n2C)C[C@H](c2cccc(-c3ccccc3)c2)C1 ?
Reply: criterion met

Ask: Can you check CN1C[C@H](Nc2nc3ccn(C)c3c(=O)n2C)C[C@H](c2ccccc2)C1 next?
Reply: criterion met

Ask: Consider next the molecule COc1ccc([C@H]2C[C@@H](Nc3nc4cc[nH]c4c(=O)n3C)CN(C)C2)cc1 in the same way.
Reply: criterion not met

Ask: Another molecule to look at: CN1CC[C@H](Nc2nc3cc[nH]c3c(=O)n2C)C[C@H](c2ccccc2)C1 (relative stereo)
Reply: criterion met

Ask: Can you check C=CCn1c(N[C@@H]2C[C@H](c3ccccc3)CN(C)C2)nc2cc[nH]c2c1=O next?
Reply: criterion met

Ask: Now give it for CN1C[C@H](Nc2nc3cc[nH]c3c(=O)n2C)C[C@H](c2ccc(Cl)c(C(F)(F)F)c2)C1 too.
Reply: criterion not met

Ask: Also need CN1C[C@H](Nc2nc3cc[nH]c3c(=O)n2C)C[C@H](c2ccc(O)cc2)C1 , thanks.
Reply: criterion not met

Ask: Please give the result for C=CCCn1c(N[C@@H]2C[C@H](c3ccccc3)CN(C)C2)nc2cc[nH]c2c1=O too.
Reply: criterion met
